- Test system: Pseudomonas aeruginosa
- protocol.text: Antibacterial activity against Pseudomonas aeruginosa after 24 hrs by micro-broth dilution technique
- Type: functional
test.readout: MIC (µg/mL)

Nc1nc(-c2cccc(Cl)c2)cc(-c2cccc3ccccc23)n1 ... 7.42
Nc1nc(-c2ccccc2)cc(-c2cccc3ccccc23)n1 ... 6.59
COc1ccccc1-c1cc(-c2cccc3ccccc23)nc(N)n1 ... 9.18
CC1(C)S[C@@H]2[C@H](NC(=O)[C@H](N)c3ccccc3)C(=O)N2[C@H]1C(=O)O ... 1.8
Nc1nc(-c2ccccc2Cl)cc(-c2cccc3ccccc23)n1 ... 6.4

A: Nc1nc(-c2ccc(Cl)cc2)cc(-c2cccc3ccccc23)n1
B: Nc1nc(-c2ccc(F)cc2)cc(-c2cccc3ccccc23)n1
C: Nc1nc(-c2ccc([N+](=O)[O-])cc2)cc(-c2cccc3ccccc23)n1
// query Returns the items ordered by MIC, from maximum to minimum. In your reply, arrange the labels in the requested order.
// result A, C, B
(A: 21.9 µg/mL, C: 11.9 µg/mL, B: 5.45 µg/mL)

a: COc1ccc(-c2cc(-c3cccc4ccccc34)nc(N)n2)cc1
b: Nc1nc(-c2cccc([N+](=O)[O-])c2)cc(-c2cccc3ccccc23)n1
// query Which of the two gives a bigger number for MIC: a or b ? Selection: enter the item's label.
// result b
(b: 18.2 µg/mL, a: 10.2 µg/mL)

Cited source: ChEMBL document CHEMBL1143781
